Quick reference for RP-LC retention time among some compounds
Experiment: gradient 5% acetonitrile 3 min, to 50% in 2 min, to 85% in 15 min, held 3 min, 100 µL/min
Conditions: column: Zorbax Extend-C18 2.1 x 50 mm; eluents: water / acetonitrile, 0.1% formic acid
QUANTITY NAME: RP-LC retention time (s)

>>> df
                                   compound         quantity_name  numeric_value
0  Cc1cccc(C(=O)N2CCC3(CC2)NC(=O)c2cc(F)ccc2N3C)c1  RP-LC retention time            779
1  CSc1ccccc1CN1CCC(CNC(=O)c2cc(=O)c3ccccc3o2)CC1  RP-LC retention time            564
2  Cc1nc(-c2cccnc2)sc1C(=O)/C=C/c1ccc(Cl)cc1Cl  RP-LC retention time           1150
3  Cc1ccn(-c2cc(Cl)ccc2[C@@H](Oc2cc(-c3ccc(C[C@H](N)C(=O)O)cc3)nc(N)n2)C(F)(F)F)n1  RP-LC retention time            834
4  CCOc1ccc(NC(=O)c2c(O)c3cccnc3n(-c3ccccc3)c2=O)cc1  RP-LC retention time           1270
5  Cc1c(CNCc2ccco2)c(C(=O)O)c(C)n1Cc1cccc(F)c1  RP-LC retention time            684
6  COCCc1noc(C2Cc3ccccc3N2C(=O)Nc2cc(OC)cc(OC)c2)n1 (centres undefined)  RP-LC retention time            929
7  CCOC(=O)C1=C(CN(C)Cc2ccccc2)NC(=O)NC1c1ccc(Cl)cc1 (centres undefined)  RP-LC retention time            698
8  Cc1nnc(-c2ccc3ccn(CC(=O)N4CCN(C(=O)c5ccco5)CC4)c3c2)o1  RP-LC retention time            674

----------
Assay: gradient 5% acetonitrile 3 min, to 50% in 2 min, to 85% in 15 min, held 3 min, 100 µL/min
Conditions: column: Zorbax Extend-C18 2.1 x 50 mm; eluents: water / acetonitrile, 0.1% formic acid
Checkbox rule: RP-LC retention time lower than 1000 s = 1; RP-LC retention time not lower than 1000 s = -1.

                                    compound  label_value
 0  COc1cccc(-c2noc(CN3C(=O)COc4cc(C)ccc43)n2)c1           -1
 1  COc1ccc(CC(=O)NCC(c2ccsc2)N2CCc3ccccc3C2)cc1OC (stereo not given)            1
 2  CN1CCn2cc(S(=O)(=O)Nc3ccc(Cl)cc3)cc2C1=O            1
 3  O=C(CCc1nnc2c3cc(-c4ccc(Cl)cc4)nn3ccn12)N1CCN(c2ccccn2)CC1            1
 4            CC(C)CNS(=O)(=O)c1cccc2cnccc12            1
 5  Cc1cccc(Nc2c(-c3ccc(N(C)C)cc3)nc3cnccn23)c1C            1
 6  Cc1ccccc1CN1CCCN(c2ncccc2-c2nc(C(C)C)no2)CC1            1
 7  Cc1ccc(S(=O)(=O)N2CCCC2)cc1-c1nnc(-c2ccc(F)cc2)o1           -1
 8  Cc1cccc(NC(=O)N2[C@H]3CC[C@@H]2c2cncnc2C3)c1            1
 9  CCOc1ccc(CN2C[C@@H](COC)[C@H](c3ccncc3)C2)cc1OC            1
10    Cc1ccc(CSc2nc(CC(=O)NCc3cccnc3)cs2)cc1            1
11  Cn1cc(CC(=O)N2CCN(S(=O)(=O)C3CC3)CC2)c2ccccc21            1
12  Fc1cccc(-c2nnc(Cc3nc(-c4ccc5c(c4)OCO5)no3)o2)c1            1
13    Cc1cc(C)n(-c2ccnc(N3CCc4ccccc4C3)n2)n1           -1
14  O=C(Nc1cnn(-c2ncncc2N2CCCC2)c1)c1ccc(C(F)(F)F)cc1            1
15  Cn1c(=O)sc2cc(S(=O)(=O)N3CCC(C(=O)NCc4ccc5c(c4)OCO5)CC3)ccc21            1
16  COc1ccc(S(=O)(=O)Nc2ccc3c(c2)N(C(C)=O)CC3)c(C)c1            1
17  Cc1ccc(S(=O)(=O)c2cnc(N3CCN(c4cc(Cl)ccc4C)CC3)nc2N)cc1C           -1
18  CC1(C(=O)NCc2ccc(Cl)cc2)CCCCC(=O)N1 (stereo not given)            1

----------
Test: gradient 5% acetonitrile 3 min, to 50% in 2 min, to 85% in 15 min, held 3 min, 100 µL/min
Conditions: column: Zorbax Extend-C18 2.1 x 50 mm; eluents: water / acetonitrile, 0.1% formic acid
QUANTITY NAME: RP-LC retention time (s)

>>> df
                                   compound  numeric_value
0  Cc1cc(C(=O)N2c3ccccc3CC2c2nnc(C3CC3)o2)nn1C (stereo not given)            786
1  O=S(=O)(c1ccc(-c2nnc(C3CC3)o2)o1)N1CCCC1            771
2  COCCn1cc2c3c(cccc31)CN(C(=O)Cc1c(F)cccc1Cl)CC2            967
3  O=C(Cc1ccc(NC(=O)CSCc2ccccc2)cc1)NCC(F)(F)F            801
4  COc1ccc(-n2ccnc(NC(=O)Nc3ccc(F)c(Cl)c3)c2=O)cc1           1020

----------
Assay: gradient 5% acetonitrile 3 min, to 50% in 2 min, to 85% in 15 min, held 3 min, 100 µL/min
Conditions: column: Zorbax Extend-C18 2.1 x 50 mm; eluents: water / acetonitrile, 0.1% formic acid
QUANTITY NAME: RP-LC retention time (s)

In [3]: df
Out[3]:
                                   compound         quantity_name  numeric_value
0  CCOCCCNC(=O)Nc1ccc2nc(N3CCOCC3)cc(C)c2c1  RP-LC retention time            596
1  Cc1ccc(-c2noc3ncnc(N4CCN(c5ccccn5)CC4)c23)cc1  RP-LC retention time            690
2     O=C(Nc1c(-c2ccccc2)nc2ccccn12)c1ccco1  RP-LC retention time            598
3  COCc1noc(C2CN(C(=O)c3ccc(Cl)s3)CC23CCCC3)n1 (stereo not given)  RP-LC retention time            962
4  O=S(=O)(NC1CCN(Cc2ccccc2)CC1)c1cc(-c2cc(C(F)(F)F)on2)cs1  RP-LC retention time            776
5     CCn1cc(-c2ccc(Cl)cc2)cc1C(=O)N1CCCCC1  RP-LC retention time           1150
6               NC(=O)c1cc(=O)[nH]c2ccccc12  RP-LC retention time            546
7  Cc1ccc(-c2nc3nc(C)cc(C)n3c2Nc2ccc3c(c2)OCCO3)cc1  RP-LC retention time            704
8  CCc1noc(NC(C)=O)c1-c1ccc(OC)c(S(=O)(=O)Nc2ccc(OC)c(Cl)c2)c1  RP-LC retention time            775
9  Cc1cc(NC(=O)C(=O)NCCN2CCN(c3ccccc3F)CC2)no1  RP-LC retention time            580

----------
Assay: gradient 5% acetonitrile 3 min, to 50% in 2 min, to 85% in 15 min, held 3 min, 100 µL/min
Details: column: Zorbax Extend-C18 2.1 x 50 mm; eluents: water / acetonitrile, 0.1% formic acid
Checkbox rule: RP-LC retention time lower than 700 s = Met; RP-LC retention time not lower than 700 s = Not met.

>>> print(df.to_string())
                                    compound  label_value
 0  CCC(=O)N1CCc2cc(N3CC(C(=O)Nc4ccc(C)cc4F)CC3=O)ccc21 (stereo not given)      Not met
 1   O=C(c1ccsc1)N1CCN(c2nnc3ccc(Cl)cn23)CC1          Met
 2  O=C(Cn1cnc2c(-c3ccc(Cl)cc3)csc2c1=O)NC1CCCC1      Not met
 3  CCCN1C(=O)COc2cc(-c3noc(C(=O)NCC4CCCN4CC)n3)ccc21 (stereo not given)          Met
 4  Cc1cc(F)cc2c(=O)c3c([nH]c12)CCN(CC(=O)Nc1ccc(F)c(Cl)c1)C3          Met
 5  COCCc1noc(C2CN(S(=O)(=O)c3ccc(C#N)cc3)C2)n1      Not met
 6  CS(=O)(=O)N(Cc1ccncc1)C1CN(S(=O)(=O)c2ccccc2)C1          Met
 7  Cc1ccc2cc(CCC(=O)NC3CCN(Cc4ccccc4)CC3)c(=O)[nH]c2c1          Met
 8  O=C(COc1ccccc1)N1CCN(C(=O)c2nnn3c2COC(c2ccc(Cl)cc2)C3)CC1 (stereo not given)      Not met
 9  CC(C(=O)N1CCN(C2CCCCC2)CC1)C1CCN(S(=O)(=O)c2cccs2)CC1 (stereo not given)          Met
10  CCCCNC(=O)C1CCN(C(=O)CCc2c(C)[nH]c(C(=O)OCC)c2C)CC1      Not met
11  CCN1CCN(c2cc(C)c3cc(NC(=O)C4CCCCC4)ccc3n2)CC1          Met
12  Cc1cccc(N2CC(C(=O)NC(C)C)CC2=O)c1 (stereo not given)          Met
13     CC(=O)N1CCN(C(=O)c2ccc(C(=O)O)cc2)CC1          Met
14         O=C(NCCc1noc(C2CC2)n1)c1ccc(Cl)s1      Not met
15     COc1ccc(-c2nc(N3CCOCC3)c3ccccc3n2)cc1          Met
16  Cc1nocc1C(=O)N1CCCn2ccnc2C1C1CCCC1 (stereo not given)          Met
17  O=S(=O)(c1ccc(Br)cc1)N1CCCC(COCc2ccccc2)C1 (stereo not given)      Not met
18  N#Cc1cccc(NC(=O)C2CCN(S(=O)(=O)c3cc(-c4noc(C5CC5)n4)cs3)CC2)c1      Not met
19                        COC(=O)c1cncc(C)c1          Met
20  Cc1ccc(C(=O)N2CCC3(CC2)NC(=O)c2cc(F)ccc2N3C)cc1      Not met
21  COc1cc2c(cc1OC)C1C(C(=O)Nc3ccc4c(c3)OCO4)c3ccccc3C(=O)N1CC2 (stereo not given)      Not met
22  Cc1cc(-c2nnc(-c3ccc(F)cc3)o2)c(C)n1CC(=O)NCc1cccs1      Not met
23  COc1ccc(-c2nc(C)cc(C)c2CNS(=O)(=O)c2cccs2)cc1          Met
24  CCCC(NC(=O)c1ccc(C)cc1C)C(=O)Nc1nc2ccccc2[nH]1 (stereo not given)      Not met
25  CNC(=O)c1cn(-c2ccc(S(=O)(=O)N3CCCC3)cn2)cn1          Met
26             CC(C)c1nc2nccc(-c3ccccc3)n2n1      Not met
27  COC(=O)c1ccc(C(=O)NCC2CCN(Cc3ccccc3SC)CC2)cc1          Met
28  O=C(Nc1ccc(F)cc1F)C1CCCN(c2ncnc3c2nc2n3CCCCC2)C1 (stereo not given)      Not met
29       CC1CCN(CCNC(=O)c2cccc3c2SCCC3=O)CC1          Met
30  O=C(Cn1nc2c3sc(N4CCCCC4)nc3ncn2c1=O)Nc1ccc(Br)cc1      Not met
31  COc1ccc(NC(=O)N2CCC3(CC2)NC(=O)c2cc(Cl)ccc2N3C)cc1OC      Not met
32  O=C(NCc1ccc(F)cc1F)C1CCN(c2ccc(SCc3ccccc3)nn2)CC1          Met
33  O=C(CN1C(=O)CC(c2ccco2)Sc2ccccc21)Nc1ccccc1C(F)(F)F (stereo not given)      Not met
34  CCCS(=O)(=O)N1CCC2(CC1)CN(c1cccc(F)c1)C2c1ccccc1 (stereo not given)      Not met
35  COc1cccc(-c2noc(Cn3nc(-c4ccc5c(c4)OCO5)ccc3=O)n2)c1      Not met
